Tested on: HCT-116
TEST_DESCRIPTION: Antiproliferative activity against human HCT116 cells after 48 hrs by propidium iodide staining based fluorometry
Type: functional, cell-based
EXPERIMENTAL_PARAMETERS: HCT-116, 48 h
pIC50: −log10 of the molar value.
MEASURED_PARAMETER: pIC50

Known pIC50 results, listed for orientation:
Cn1c(=O)c2c(c3ccccc31)OC(N)=C(C#N)C2c1cccc(Br)c1 (stereo not drawn) | 6.05
Cn1c(=O)c2c(c3ccccc31)OC(N)=C(C#N)C2c1cccc(Oc2ccccc2)c1 (stereo not drawn) | 5.29

1 = Cn1c(=O)c2c(c3ccccc31)OC(N)=C(C#N)C2c1ccc(O)cc1 (stereo not drawn)
2 = Cn1c(=O)c2c(c3ccccc31)OC(N)=C(C#N)C2c1ccccc1 (stereo not drawn)
3 = Cn1c(=O)c2c(c3ccccc31)OC(N)=C(C#N)C2c1cccc([N+](=O)[O-])c1 (stereo not drawn)
4 = Cn1c(=O)c2c(c3ccccc31)OC(N)=C(C#N)C2c1cccc(Cl)c1 (stereo not drawn)
Hey, can you sort those molecules up there by pIC50, smallest first? Give the labels in the order specified.
3, 2, 1, 4
(3: 5.18, 2: 6.00, 1: 6.22, 4: 6.52)
